Each recorded value in this set is attributed to PubChem BioAssay AID1851.

# test_target: Cytochrome P450 2C19 (Homo sapiens) (UniProt P33261)
# Sequence (P33261 whole entry, looked up): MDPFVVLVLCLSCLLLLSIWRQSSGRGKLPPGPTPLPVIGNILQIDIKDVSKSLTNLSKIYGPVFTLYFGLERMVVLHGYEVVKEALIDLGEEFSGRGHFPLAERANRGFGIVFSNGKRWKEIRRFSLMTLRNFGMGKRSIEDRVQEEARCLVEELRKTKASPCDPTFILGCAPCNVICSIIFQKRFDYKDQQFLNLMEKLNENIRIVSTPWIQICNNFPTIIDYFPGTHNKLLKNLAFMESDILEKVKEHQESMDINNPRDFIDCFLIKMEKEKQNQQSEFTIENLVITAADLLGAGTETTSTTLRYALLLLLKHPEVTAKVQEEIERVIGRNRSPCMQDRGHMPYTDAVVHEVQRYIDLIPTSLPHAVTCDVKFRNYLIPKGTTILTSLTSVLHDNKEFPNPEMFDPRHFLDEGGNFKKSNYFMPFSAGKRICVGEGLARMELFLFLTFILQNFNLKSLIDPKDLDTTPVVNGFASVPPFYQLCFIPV
# assay_notes: Cytochrome panel assay with activity outcomes; also: % is scaled to controls: 0 for no effect and ±100 for the full control effect
# test_context: recombinant CYP, pro-luciferin dealkylation, luminescence, p450-cyp2c19; series mostly up to 57.1 µM
Hit rate of the full screen: of about 16,000 compounds, about 5,800 (36%) were called active. Not shown: some 23% with an inconclusive outcome. The list shows a part of the results.
List of activity, negative = inhibition values.

Below, 5 molecules whose answers are already recorded.
>>> print(df.to_string())
                               query_smiles              experimental_value
0                     Cc1ncn(-c2ccccc2O)c1C    -11% [at 11.4 µM] (inactive)
1     CC(C)c1ccc(/C(C(=O)O)=C(\O)C(=O)O)cc1  -8.84% [at 11.4 µM] (inactive)
2              O=C(O)CCC(=O)Nc1ccc2ccccc2c1  -18.3% [at 11.4 µM] (inactive)
3  O[C@H](C[C@@H]1CCCCN1)c1ccc2c(c1)oc1ccccc12  -14.6% [at 11.4 µM] (inactive)
4  CO[C@@H]1COC(=O)C/C=C\[C@@H](C)COC(=O)[C@H](COCc2ccccc2)NC(=O)C/C=C\[C@H]1C  -16.4% [at 11.4 µM] (inactive)

Query activity, negative = inhibition for `CC(C)Cn1cnc2c(Sc3c([N+](=O)[O-])ncn3C)nc(N)nc21`
17.8% [at 11.4 µM] (inactive)

Name the recorded activity, negative = inhibition of the molecule listed here: `O=C(O)[C@H]([C@H]1NCCS1)N1Cc2ccccc2C1`
-31.8% [at 11.4 µM] (inactive)

Supply recorded activity, negative = inhibition for `Cc1cn([C@H]2C[C@H](O)[C@@H](COC(N)=O)O2)c(=O)[nH]c1=O` here.
35.3% [at 11.4 µM] (inactive)

Answer with the recorded activity, negative = inhibition of `CCN(CC)C[C@@H](O)CN1CCCCc2nc(C)c(C)cc21` only.
32.1% [at 11.4 µM] (inactive)

Recall and state the measured activity, negative = inhibition for `CCCNC(=O)OC[C@@H]1O[C@H](c2ccccc2)C=C[C@@H]1Oc1ccc(OC)cc1` .
-44.8% [at 11.4 µM] (inactive)
